Below, each of the binders is paired with its reported Trimeric HA Binding RLU value.
# SYSTEM_TESTED: recombinant homotrimeric HA, A/Wisconsin/67/05 H3N2 (Influenza A virus A/Wisconsin/67/05 (H3N2))
# TEST_DETAILS: trimeric HA microarray, transfection set 5
# MEASUREMENT_PARAMETERS: remark: other sources report otherwise
State just the number; it will be interpreted in RLU.

Some binders with known Trimeric HA Binding RLU results, for comparison:
BINDER | Trimeric HA Binding RLU / RLU
TCN-554 (5277_M05) (antibody, V domains shown) VH: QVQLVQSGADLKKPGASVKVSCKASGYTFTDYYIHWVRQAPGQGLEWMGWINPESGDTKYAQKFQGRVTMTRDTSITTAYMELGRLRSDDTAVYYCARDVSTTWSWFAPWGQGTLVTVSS VL: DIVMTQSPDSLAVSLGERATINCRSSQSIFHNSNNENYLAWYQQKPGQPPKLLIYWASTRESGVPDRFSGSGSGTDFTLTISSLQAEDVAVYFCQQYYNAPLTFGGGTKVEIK | 25300
TCN-550 (5096_F06) (antibody, V domains shown) VH: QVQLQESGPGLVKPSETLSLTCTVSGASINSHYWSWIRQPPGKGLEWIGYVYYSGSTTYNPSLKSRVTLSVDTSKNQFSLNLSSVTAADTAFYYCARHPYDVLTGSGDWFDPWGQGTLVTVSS VL: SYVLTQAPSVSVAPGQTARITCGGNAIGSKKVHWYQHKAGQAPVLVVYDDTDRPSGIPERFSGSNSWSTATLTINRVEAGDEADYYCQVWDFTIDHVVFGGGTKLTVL | 37800
TCN-555 (5246_L16) (antibody, V domains shown) VH: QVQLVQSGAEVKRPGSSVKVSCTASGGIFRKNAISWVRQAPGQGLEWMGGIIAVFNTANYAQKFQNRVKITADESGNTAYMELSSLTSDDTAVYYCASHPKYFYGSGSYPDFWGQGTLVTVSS VL: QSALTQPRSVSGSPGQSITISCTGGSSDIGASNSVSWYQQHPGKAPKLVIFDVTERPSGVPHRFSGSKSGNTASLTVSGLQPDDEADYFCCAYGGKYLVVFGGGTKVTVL | 14700
TCN-553 (5261_C18) (antibody, V domains shown) VH: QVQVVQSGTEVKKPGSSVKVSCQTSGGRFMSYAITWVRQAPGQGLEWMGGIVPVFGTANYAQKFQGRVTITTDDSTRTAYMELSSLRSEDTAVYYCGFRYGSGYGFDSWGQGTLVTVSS VL: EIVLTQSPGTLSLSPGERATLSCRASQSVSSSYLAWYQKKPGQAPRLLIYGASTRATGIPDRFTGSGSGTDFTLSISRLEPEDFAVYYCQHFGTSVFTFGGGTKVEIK | 25200

Next binder, please.
Find the recorded Trimeric HA Binding RLU belonging to TCN-537 (3194_D21) (antibody, V domains shown) VH: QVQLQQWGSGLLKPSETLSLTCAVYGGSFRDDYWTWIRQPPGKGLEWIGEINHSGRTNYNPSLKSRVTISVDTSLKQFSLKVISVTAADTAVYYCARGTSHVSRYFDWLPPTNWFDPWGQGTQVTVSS VL: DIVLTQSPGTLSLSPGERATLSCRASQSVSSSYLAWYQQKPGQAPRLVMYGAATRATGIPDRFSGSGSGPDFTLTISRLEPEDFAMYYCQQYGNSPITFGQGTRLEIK and report it.
1940
